Test system: 855422-203-R-J1-PDC spheroids with HUVEC/MSC, viability
Assay: Anticancer human tumor 855422-203-R-J1-PDC patient-derived bladder carcinoma cell line growth inhibition [PI3K]
Settings: second compound 0.01 µM; first compound 0.1 µM; hits give low values
observation_type: viability, T/C (%)
Your answer should be a plain number; it is taken to be in %.

Below are worked cases with known answers.
- molecule: "CCN1CCN(Cc2ccc(Nc3ncc(F)c(-c4cc(F)c5nc(C)n(C(C)C)c5c4)n3)nc2)CC1 + CC(Nc1ccc2c(c1)OCCn1cc(N3C(=O)OCC3C(F)F)nc1-2)C(N)=O"
  unit_descriptor: "%"
  viability, T/C: 76
- molecule: "CC(Cn1ccc(-c2ccc(C#N)c(Cl)c2)n1)NC(=O)c1cc(C(C)O)[nH]n1 (stereo unspecified) + COc1c(OCCCN2CCOCC2)ccc2c3n(c(=NC(=O)c4cnc(N)nc4)nc12)CCN3"
  unit_descriptor: "%"
  viability, T/C: 83.7
- molecule: "CC1(C)CCC(Nc2ncc(C(F)(F)F)c(-c3c[nH]c4c(P(C)(C)=O)c(C#N)ccc34)n2)CN1 (stereo unspecified) + CC(Nc1ccc2c(c1)OCCn1cc(N3C(=O)OCC3C(F)F)nc1-2)C(N)=O"
  unit_descriptor: "%"
  viability, T/C: 21.3
- molecule: "CC(C)n1nc(-c2ccc3oc(N)nc3c2)c2c(N)ncnc21 + COc1c(OCCCN2CCOCC2)ccc2c3n(c(=NC(=O)c4cnc(N)nc4)nc12)CCN3"
  unit_descriptor: "%"
  viability, T/C: 10.4
- molecule: "C[C@@H](NC(=O)c1ncnc(N)c1Cl)c1ncc(C(=O)Nc2cc(C(F)(F)F)c(Cl)cn2)s1 + COc1c(OCCCN2CCOCC2)ccc2c3n(c(=NC(=O)c4cnc(N)nc4)nc12)CCN3"
  unit_descriptor: "%"
  viability, T/C: 85.2

What value of viability, T/C has been recorded for this entry: C=CC(=O)N1CCN(c2nc(=O)n(-c3c(C)ccnc3C(C)C)c3nc(-c4c(O)cccc4F)c(F)cc23)C(C)C1 (stereo unspecified) + COc1c(OCCCN2CCOCC2)ccc2c3n(c(=NC(=O)c4cnc(N)nc4)nc12)CCN3
99.4

* * *

Tested on: 855422-203-R-J1-PDC spheroids with HUVEC/MSC, viability
Assay: Anticancer human tumor 855422-203-R-J1-PDC cell line growth inhibition [PI3K];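 also: agents incubated with spheroids for one week before read-out; 100% = DMSO vehicle-treated control wells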
Details: second compound 0.01 µM; first compound 0.1 µM; hits give low values
In this section we review reported viability, T/C values for a set of molecules.
Your answer should be a plain number; it is taken to be in %.

Below are worked cases with known answers.
- molecule: "CCCS(=O)(=O)Nc1ccc(F)c(C(=O)c2c[nH]c3ncc(-c4ccc(Cl)cc4)cc23)c1F + COc1c(OCCCN2CCOCC2)ccc2c3n(c(=NC(=O)c4cnc(N)nc4)nc12)CCN3"
  system: "855422-203-R-J1-PDC spheroids with HUVEC/MSC, viability"
  viability, T/C, %: 89.5
- molecule: "CC1(C)CCC(Nc2ncc(C(F)(F)F)c(-c3c[nH]c4c(P(C)(C)=O)c(C#N)ccc34)n2)CN1 (stereo not drawn) + COc1c(OCCCN2CCOCC2)ccc2c3n(c(=NC(=O)c4cnc(N)nc4)nc12)CCN3"
  system: "855422-203-R-J1-PDC spheroids with HUVEC/MSC, viability"
  viability, T/C, %: 18.6

Could you now look at the following molecule, please?
Missing value: viability, T/C, 855422-203-R-J1-PDC spheroids with HUVEC/MSC, viability, entry C#Cc1c(F)ccc2cc(O)cc(-c3ncc4c(N5CC6CCC(C5)N6)nc(OCC56CCCN5CC(F)C6)nc4c3F)c12 (stereo not drawn) + COc1c(OCCCN2CCOCC2)ccc2c3n(c(=NC(=O)c4cnc(N)nc4)nc12)CCN3 . Fill in?
90.9
